Biological target: p210^bcr-abl (Homo sapiens)
Construct: immune complexes containing ^32P-labeled p210^bcr-abl were collected on protein Sepharose beads; BCR (N-terminal part of the breakpoint cluster region protein, natural fusion partner); endogenous in cells; host or cells: K562 cells (lysate, immunoprecipitated on Protein A-Sepharose); the other entry of the earlier key: BCR (P11274, Breakpoint cluster region protein)
Experiment: Inhibition of in vitro auto-phosphorylation of p210^bcr-abl, immune-complex kinase assay
Format: biochemical
Settings: Table 9; immune complex kinase assay; mean ± S.E., 3 experiments; read-out: Enzyme Assays IC50 (μM) p210bcl-abl in vitro phosphorylation
MEASURED PROPERTY: IC50 (µM)
Kindly provide the numeric value in µM only, without the unit symbol.

# annotated cases, reported IC50 shown
COMPOUND	VALUE UNIT	IC50
COC(=O)c1ccc(NCC2=C(Br)C(=O)C=CC2=O)cc1Cl	µM	2.35
CC(C)(C)OC(=O)c1ccc(NCC2=CC(=O)C=CC2=O)cc1	µM	25.9
CC(C)C(OC(=O)c1ccc(NCC2=CC(=O)C=CC2=O)cc1)C(C)C [COOCH[CH(CH3)2]2 / H / 2,5-quinoyl]	µM	34
CC(C)OC(=O)c1ccc(NCC2=CC(=O)C=CC2=O)cc1Cl	µM	3.01
CC(C)(C)OC(=O)c1ccc(NCC2=C(Br)C(=O)C=CC2=O)cc1	µM	2.68

Lookup: Quick check: IC50 of O=C1C=CC(=O)C(CNc2ccc(C(=O)OCc3ccccc3)cc2)=C1 ?
Found: 8.75

Lookup: Recorded IC50 for COC(=O)c1ccc(NCC2=CC(=O)C=CC2=O)cc1 , please?
Found: 15.9

Lookup: // lookup IC50 for CC(C)OC(=O)c1ccc(NCC2=CC(=O)C=CC2=O)cc1
Found: 13.7

----------
Tested on: panel of approximately 60 different human tumor cell lines
Test: National Cancer Institute drug screen, mean-graph parameters
Type: cell-based
Settings: Table 10; mean over cell line panel, two days exposure
MEASURED PROPERTY: Tumor Cell Mean log GI50

# count of solved cases: 3
MOLECULE	MEASUREMENT
CC(C)OC(=O)c1ccc(CCC2=CC(=O)C(Br)=CC2=O)cc1	−4.85
CC(C)OC(=O)c1ccc(CCC2=CC(=O)C=CC2=O)cc1	−5.05
COC(=O)c1ccc(/C=C/C2=CC(=O)C=CC2=O)cc1	−4.86

Lookup: Fill in: Tumor Cell Mean log GI50 of O=C(O)c1ccc(CCc2cc(O)ccc2O)cc1O is ___
Found: −4.06

Lookup: Fill in: Tumor Cell Mean log GI50 of O=C(O)c1ccc(/C=C/c2cc(O)ccc2O)cc1O [COOH / 2,5-dihydroxyphenyl / CH═CH / OH] is ___
Found: >−5.03

Lookup: Please report the recorded Tumor Cell Mean log GI50 for COC(=O)c1ccc(CCC2=CC(=O)C=CC2=O)cc1 .
Found: −5.00

----------
Entries and their pIC50
Target: p210^bcr-abl (Homo sapiens, UniProt P00519)
Construct: immune complexes containing ^32P-labeled p210^bcr-abl were collected on protein Sepharose beads; BCR (N-terminal part of the breakpoint cluster region protein, natural fusion partner); endogenous in cells; host or cells: K562 cells (lysate, immunoprecipitated on Protein A-Sepharose); the other entry of the earlier key: BCR (P11274, Breakpoint cluster region protein)
Sequence (P00519 with tags, fused parts or gaps): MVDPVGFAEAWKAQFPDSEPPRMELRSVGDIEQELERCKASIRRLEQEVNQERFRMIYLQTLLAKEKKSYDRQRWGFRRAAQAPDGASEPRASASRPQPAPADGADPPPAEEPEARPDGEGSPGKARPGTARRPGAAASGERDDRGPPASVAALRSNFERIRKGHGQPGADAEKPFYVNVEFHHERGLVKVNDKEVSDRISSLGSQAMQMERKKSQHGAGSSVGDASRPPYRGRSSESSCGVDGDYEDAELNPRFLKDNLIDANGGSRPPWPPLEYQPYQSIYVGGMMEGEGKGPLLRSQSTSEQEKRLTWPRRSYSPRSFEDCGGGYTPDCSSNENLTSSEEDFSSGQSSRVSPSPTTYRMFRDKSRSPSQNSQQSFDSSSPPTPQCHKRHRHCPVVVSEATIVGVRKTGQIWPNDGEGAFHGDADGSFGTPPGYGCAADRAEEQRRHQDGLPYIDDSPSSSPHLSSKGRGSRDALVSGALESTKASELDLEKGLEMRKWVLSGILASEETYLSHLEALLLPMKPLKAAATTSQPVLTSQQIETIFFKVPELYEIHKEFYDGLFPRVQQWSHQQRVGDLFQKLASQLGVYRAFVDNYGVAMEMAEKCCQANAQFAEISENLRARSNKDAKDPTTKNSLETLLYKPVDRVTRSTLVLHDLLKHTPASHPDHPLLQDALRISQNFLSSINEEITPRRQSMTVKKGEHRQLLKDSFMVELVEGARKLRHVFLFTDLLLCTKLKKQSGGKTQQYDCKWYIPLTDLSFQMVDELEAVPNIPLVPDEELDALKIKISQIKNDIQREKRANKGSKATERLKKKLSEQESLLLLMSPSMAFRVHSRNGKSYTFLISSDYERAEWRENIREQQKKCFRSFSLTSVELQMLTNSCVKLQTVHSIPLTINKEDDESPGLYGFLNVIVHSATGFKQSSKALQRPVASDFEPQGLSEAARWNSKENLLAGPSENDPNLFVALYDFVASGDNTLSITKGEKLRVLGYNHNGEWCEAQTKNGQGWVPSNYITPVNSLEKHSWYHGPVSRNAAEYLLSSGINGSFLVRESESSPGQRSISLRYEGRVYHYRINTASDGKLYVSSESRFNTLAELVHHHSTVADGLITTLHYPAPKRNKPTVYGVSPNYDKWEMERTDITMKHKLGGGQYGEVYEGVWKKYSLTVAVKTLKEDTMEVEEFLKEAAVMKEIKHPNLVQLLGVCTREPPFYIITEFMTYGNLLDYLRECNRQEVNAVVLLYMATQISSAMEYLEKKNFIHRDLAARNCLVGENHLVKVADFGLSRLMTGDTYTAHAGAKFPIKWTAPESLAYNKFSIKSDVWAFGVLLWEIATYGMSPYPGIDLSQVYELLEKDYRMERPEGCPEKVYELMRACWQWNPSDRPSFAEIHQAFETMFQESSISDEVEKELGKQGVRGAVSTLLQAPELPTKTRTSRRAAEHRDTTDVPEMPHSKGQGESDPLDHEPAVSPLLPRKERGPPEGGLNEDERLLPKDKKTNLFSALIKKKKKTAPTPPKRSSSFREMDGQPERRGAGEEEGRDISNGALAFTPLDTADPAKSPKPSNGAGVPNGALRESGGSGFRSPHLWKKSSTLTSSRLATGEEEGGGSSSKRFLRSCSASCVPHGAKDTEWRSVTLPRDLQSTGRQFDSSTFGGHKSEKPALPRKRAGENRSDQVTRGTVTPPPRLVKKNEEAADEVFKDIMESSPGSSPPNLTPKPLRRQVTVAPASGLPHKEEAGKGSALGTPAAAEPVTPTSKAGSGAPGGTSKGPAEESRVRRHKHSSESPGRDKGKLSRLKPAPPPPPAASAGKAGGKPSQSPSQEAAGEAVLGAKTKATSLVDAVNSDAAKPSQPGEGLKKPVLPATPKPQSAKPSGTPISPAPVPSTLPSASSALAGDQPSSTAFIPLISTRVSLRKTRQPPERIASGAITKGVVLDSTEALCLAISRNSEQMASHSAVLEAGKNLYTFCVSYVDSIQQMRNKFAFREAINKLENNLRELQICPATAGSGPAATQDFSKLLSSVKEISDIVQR
Experiment: Inhibition of in vitro auto-phosphorylation of p210^bcr-abl, immune-complex kinase assay
Assay type: biochemical
Details: Table 4; read-out: IC50 (p210^ber-abi in vitro phosphorylation)
Scale note: pIC50 = -log10(concentration in M).

The examples below pair each entry with its known result.
CC(C)OC(=O)c1ccc(CCC2=CC(=O)C=CC2=O)cc1 4.60
CC(C)OC(=O)c1cc(NCc2c(O)ccc(O)c2Br)ccc1Cl 5.00

Please find the next molecule below.
Lookup: Recall the recorded pIC50 for CC(C)(C)OC(=O)c1ccc(NCc2cc(O)ccc2O)cc1 with p210^bcr-abl (Homo sapiens, UniProt P00519) and state it.
Found: 5.00
